Data credit: patent US20060035966A1

# System: CV-1 control cell line
# assay-summary: Cytotoxicity, SRB assay, CV-1 control
# Assay type: cell-based, African green monkey
# measurement-context: Chlorocebus sabaeus; Table 2B, Example 1; read-out: IC50 CV-1 (Control)
pIC50: −log10 of the molar value.
test-readout: pIC50

[
  {
    "molecule": "C[C@@](O)(CBr)C(=O)Nc1ccc([N+](=O)[O-])c(C(F)(F)F)c1 [S-NTBA]",
    "test-readout": "pIC50",
    "measured-number": 4.90
  }
]

====

# Test system: PC-3 bone metastatic prostate cancer cell line
# assay-summary: Cytotoxicity, SRB assay, PC-3
# Format: cell-based, human
# measurement-context: Homo sapiens, 96 h, read-out: IC50 PC-3
The following compounds are listed with their measured IC50 values.

[
  {
    "compound": "C[C@](O)(COc1ccc(N=C=S)cc1)C(=O)Nc1ccc([N+](=O)[O-])c(C(F)(F)F)c1 [Compound V]",
    "unit-string": "µM",
    "IC50": 48.5
  },
  {
    "compound": "C[C@](O)(COc1ccc(NC(=O)CCl)cc1)C(=O)Nc1ccc([N+](=O)[O-])c(C(F)(F)F)c1 [DJ 1-31]",
    "unit-string": "µM",
    "IC50": 5.3
  },
  {
    "compound": "C[C@](O)(COc1ccc(NC(=O)CBr)cc1)C(=O)Nc1ccc([N+](=O)[O-])c(C(F)(F)F)c1 [DJ 1-29]",
    "unit-string": "µM",
    "IC50": 2.4
  }
]
